# System: SF-539 CNS
# Protocol: NCI tumour cell line growth inhibition, 48 h; in the data active = GI50 below about 0.43 µM; inactive = the rest
Answer with one of the outcomes 1 (yes) (active), 0 (no) (inactive)

Would you please look over these solved cases?
{"Molecule": "CCOC(=O)c1cc(C(=O)c2cc(OC)c(OC)c(OC)c2)n2ncccc12", "Label": "1 (yes)"}
{"Molecule": "CC(C)(C)c1ccc(S(=O)(=O)Oc2ccc3c4c(c(=O)oc3c2)CCCCC4)cc1", "Label": "0 (no)"}

Prompt line: Which result was noted for this molecule in the test: CC(=O)c1ccc2c(c1)c1cc(C(C)=O)ccc1n2CCNC(C)C
Response line: 0 (no)

Prompt line: Which result was noted for this molecule in the test: CC(N)C(Cc1ccc(Cl)cc1)c1ccc(Cl)cc1 (centres undefined)
Response line: 0 (no)

Prompt line: Which result was noted for this molecule in the test: COCCNCc1ccc(-c2cc3nccc(Oc4ccc(NC(=S)NC(=O)Cc5ccc(F)cc5)cc4F)c3s2)nc1
Response line: 0 (no)

* * *

# Test system: A498 renal
# Protocol: NCI tumour cell line growth inhibition, 48 h
Assay metric: TGI

Recorded results for 3 compounds are shown here.
{"Compound": "Nc1c(C(=O)O)nnc2cc(Cl)c(Cl)cc12", "Subject of test": "A498 renal", "TGI": "> 100 µM"}
{"Compound": "O=C(O)CN1C=C(C(=O)c2cc3ccccc3n2S(=O)(=O)c2ccccc2)CCC1", "Subject of test": "A498 renal", "TGI": "> 100 µM"}
{"Compound": "O=C(Nc1ccc2[nH]nc(-c3ccncc3)c2c1)[C@@H]1CCN(CC(=O)N2CCN(c3ccc(-c4ncccn4)cc3)CC2)C1", "Subject of test": "A498 renal", "TGI": "0.533 µM"}

Please state TGI for every compound in the list that follows.
1. COc1ccc(N=Nc2c(C)c(C#N)c(=S)n(C3OC(CO)C(O)C(O)C3O)c2-c2ccccc2)cc1 (centres undefined)
2. CC(C)C1=CC(=O)C(C)(C2C(O)CC3(C)C4CC=C5C(CCC(OC6OC(CO)C(O)C(O)C6OC6OC(C)C(O)C(O)C6O)C5(C)C)C4(C)C(=O)CC23C)O1 (centres undefined)
3. O=C1NC(=O)C(F)(n2cc(F)c(=O)[nH]c2=O)C(O)N1 (centres undefined)
4. COC(=O)C1CCc2c1c(=O)n1c([nH]c3ccccc31)c2C#N (centres undefined)
5. CCCCNC(=O)c1cc2c(cc1Cl)Sc1nccn1S2(=O)=O
6. CC(C)OC(=O)c1ccc(CCC2=CC(=O)C=CC2=O)cc1

Response line:
1. 44.5 µM
2. > 100 µM
3. > 10 µM
4. > 100 µM
5. > 100 µM
6. 45.3 µM

* * *

# Test system: SNB-19 CNS
# Protocol: NCI tumour cell line growth inhibition, 48 h
Consider the following molecules; for each one, report its TGI.

{"Molecule": "COc1ccc(C(c2cc(OC)c(OC)c(OC)c2)n2ccnc2)cc1O (configuration not stated)", "Subject of test": "SNB-19 CNS", "Assay metric": "TGI", "Reported": "> 100 µM"}

Please state TGI for every molecule in the list that follows.
1. S=c1[nH]nc(CNc2ccc(-c3n[nH]c(=S)n3-c3ccc(Cl)cc3)cc2)n1-c1ccc(Cl)cc1
2. CNNC1=NS(=O)(=O)c2cc(C#N)c(Cl)cc2S1
3. CCCCNC(=O)c1cc2c(cc1Cl)Sc1nccn1S2(=O)=O
4. Cc1cccc(N(C)C(=O)[C@@H]2[C@H](O)CCN2c2nc(C)cc(C(F)(F)F)c2C#N)c1
5. COC(=O)/C=C1\C(=O)N(C(C)=O)c2ccc(Br)cc21
6. CCN(Cc1ccc(C)cc1)c1ccc(CO)c(Cl)c1

Response line:
> 100 µM
> 10 µM
> 100 µM
> 100 µM
27.9 µM
31.1 µM
